Assay: qHTS profiling for inhibitors of Plasmodium falciparum proliferation (AID 504749);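 further: 0% = DMSO vehicle and full inhibition = artemisinin control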
Details: P. falciparum in erythrocytes, SYBR Green DNA, 72 h; at 12.8 µM (top of the series); parasite line B
Inconclusive results are not listed.
# maps each entry to its activity, negative = inhibition
result.type: activity, negative = inhibition (%)

compound	result.type	display.unit	val
O=C(Nc1ccccc1)OC[C@H](CN1CCCCC1)OC(=O)Nc1ccccc1	activity, negative = inhibition	%	-2.24
CCc1c(C)[nH]c2c1C(=O)[C@H](CN1CCOCC1)CC2	activity, negative = inhibition	%	6.66
CC(=O)O[C@]1(C(C)=O)CC[C@@H]2[C@@H]3C=C(C)C4=CC(=O)CC[C@@]4(C)[C@H]3CC[C@]21C	activity, negative = inhibition	%	2.77
CC[C@H]1NC(=O)c2cc(S(N)(=O)=O)c(Cl)cc2N1	activity, negative = inhibition	%	18.4
CN1CCN([C@@H](c2ccccc2)c2ccc(Cl)cc2)CC1	activity, negative = inhibition	%	-12.4
CC(=O)OCC(=O)[C@@]12OC(C)(C)O[C@@H]1C[C@H]1[C@H]3C[C@H](F)C4=CC(=O)C=C[C@@]4(C)[C@]3(F)[C@H](O)C[C@@]12C	activity, negative = inhibition	%	-12
CC1=C(C(=O)O)N2C(=O)[C@@H](NC(=O)[C@@H](N)c3ccc(O)cc3)[C@@H]2SC1	activity, negative = inhibition	%	1.57
CC(=O)[C@@H]1CC[C@@H]2[C@@H]3C[C@H](C)C4=CC(=O)CC[C@@]4(C)[C@H]3[C@H](O)C[C@]21C	activity, negative = inhibition	%	-6.03
CCC(=O)[C@@]1(C)[C@H](C)C[C@@H]2[C@@H]3CCC4=CC(=O)C=C[C@@]4(C)[C@H]3[C@H](O)C[C@]21C	activity, negative = inhibition	%	3.51
CCO[C@H]1O[C@@H]([C@H](COCc2ccccc2)OCc2ccccc2)[C@@H](OCc2ccccc2)[C@H]1O	activity, negative = inhibition	%	-27.6
C[C@H]1CS(=O)(=O)CCN1/N=C\c1ccc([N+](=O)[O-])o1	activity, negative = inhibition	%	-12.5
CO[C@]1(NC(=O)[C@H](C(=O)O)c2ccc(O)cc2)C(=O)N2C(C(=O)O)=C(CSc3nnnn3C)CO[C@H]21	activity, negative = inhibition	%	2.41
CC(=O)N(C[C@@H](C)C(=O)O)c1c(I)cc(I)c(N)c1I	activity, negative = inhibition	%	4.5
C=CC1=C(C(=O)O)N2C(=O)[C@@H](NC(=O)/C(=N\OCC(=O)O)c3csc(N)n3)[C@@H]2SC1	activity, negative = inhibition	%	-5.96
CC(C)(C)NC[C@H](O)COc1cccc2c1C[C@@H](O)[C@@H](O)C2	activity, negative = inhibition	%	2.07
CN1CCO[C@H](c2ccccc2)c2ccccc2C1	activity, negative = inhibition	%	0.83
CC(C)(C)NC[C@H](O)COc1cccc2c1CCC(=O)N2	activity, negative = inhibition	%	-1.3
C[C@H]1CC[C@]2(OC1)O[C@@H]1C[C@@H]3[C@@H]4CC[C@H]5C[C@@H](O)CC[C@]5(C)[C@@H]4CC(=O)[C@@]3(C)[C@H]1[C@@H]2C	activity, negative = inhibition	%	13.9
COCC(=O)Nc1c(I)c(C(=O)NC[C@@H](O)CO)c(I)c(C(=O)N(C)C[C@@H](O)CO)c1I	activity, negative = inhibition	%	-0.0954
NC(=O)c1cc[n+](CC2=C(C(=O)[O-])N3C(=O)[C@@H](NC(=O)Cc4cccs4)[C@@H]3SC2)cc1	activity, negative = inhibition	%	1.86
C[C@H](Oc1ccccc1)C(=O)N[C@@H]1C(=O)N2[C@@H]1SC(C)(C)[C@@H]2C(=O)O	activity, negative = inhibition	%	2.55
CC(C)NC[C@H]1CCc2cc(CO)c([N+](=O)[O-])cc2N1	activity, negative = inhibition	%	12.7
COc1c(O[C@H]2O[C@@H](CO)[C@@H](O)[C@@H](O)[C@@H]2O)cc2c(c1OC)-c1ccc(SC)c(=O)cc1[C@H](NC(C)=O)CC2	activity, negative = inhibition	%	4.25
CC[C@H](CO)NCCN[C@@H](CC)CO	activity, negative = inhibition	%	5.7
C[C@@H]1Cc2ccccc2N1NC(=O)c1ccc(Cl)c(S(N)=O)c1 (stereo not given in full)	activity, negative = inhibition	%	17.7
NC[C@@H]1O[C@H](O[C@@H]2[C@H](O[C@@H]3O[C@H](CO)[C@@H](O)[C@@H]3O)[C@@H](O)[C@@H](N)C[C@H]2N)[C@@H](N)[C@H](O)[C@@H]1O	activity, negative = inhibition	%	2.48
C[C@H](N[C@@H](C)COc1ccccc1)[C@H](O)c1ccc(O)cc1	activity, negative = inhibition	%	10.2
CN[C@H]1[C@H](O)[C@@H](O[C@@H]2[C@H](O)[C@@H](O[C@H]3OC(CN)=CC[C@H]3N)[C@@H](N)C[C@H]2N)OC[C@@]1(C)O	activity, negative = inhibition	%	6.19
CCOC(=O)O[C@]1(C(=O)COC(=O)CC)CC[C@@H]2[C@@H]3CCC4=CC(=O)C=C[C@@]4(C)[C@H]3[C@H](O)C[C@]21C	activity, negative = inhibition	%	0.379
O=C(OC[C@@H](O)CO)c1ccccc1Nc1ccnc2cc(Cl)ccc12	activity, negative = inhibition	%	-22.4
CC[C@H](Cc1c(I)cc(I)c(N)c1I)C(=O)O	activity, negative = inhibition	%	11.4
NS(=O)(=O)c1cc2c(cc1Cl)N[C@@H](CC1CCCC1)NS2(=O)=O	activity, negative = inhibition	%	5.35
CN(C)CCn1nnnc1SCC1=C(C(=O)O)N2C(=O)[C@@H](NC(=O)Cc3csc(N)n3)[C@@H]2SC1	activity, negative = inhibition	%	1.06
COc1ccc(OC)c([C@H](O)CNC(=O)CN)c1	activity, negative = inhibition	%	1.53
CO[C@]1(NC(=O)C2SC(=C(C(N)=O)C(=O)O)S2)C(=O)N2C(C(=O)O)=C(CSc3nnnn3C)CS[C@H]21 (stereo not given in full)	activity, negative = inhibition	%	-0.327
